- TARGET_OF_ASSAY: T1, mouse vascular endothelial growth factor receptor-2 Fc chimera (Flk-1-Fc) (mouse, UniProt P35918 20-762)
- T1 construct: bought from R&D Systems; also called mouse VEGF-R2-Fc; Fc part of the bought chimera not given, not described
- ASSAY_NOTES: BIAcore, Flk-1-Fc immobilised on CM5 chip
MEASURED_ENDPOINT: pKd
# reply with the number alone; pKd is -log10 of concentration in mol/L

M5FL, E. coli-expressed, His6 (designed binder, soluble E. coli form with Ser100) VSDVPRDLEVVAATPTSLLISWRHPHFPTRYYRITYGETGGNSPVQEFTVPLQPPLATISGLKPGVDYTITVYAVTKERNGRELFTPISINYRTEIDKPSQHHHHHH    8.68

Now examine the next entry.
Give pKd for the following binder: E6, E. coli-expressed, His6 (designed binder, soluble E. coli form; N-terminal residues added for expression not described) EVVAATPTSLLISWRHPHFPTRYYRITYGETGGNSPVQEFTVPLQPPTATISGLKPGVDYTITGYAVTDGWNGRLLSIPISINYRTEIDKPSQHHHHHH
8.69
